These measurements were taken from paper PMC10114720.

Experiment: monoprotic acid or base: log K of the neutral species extrapolated from the linear regression of D on the neutral fraction (from pKa and pH; the paper's eq. for monoprotic IOCs), the slope giving K of the neutral species; replicates column holds the table's 95% confidence limits. PDMS sheets cleaned by Soxhlet with ethyl acetate; batch shaking method with a mixture of all chemicals at several PDMS-mass to water-volume ratios and spiked levels; vials shaken on an orbital shaker at room temperature in the dark, sampled at two equilibration times; PDMS extracts and water quantified by LC-HRMS (Orbitrap); D from the slope of C_PDMS on C_w or their ratio
Settings: PDMS (polydimethylsiloxane silicone sheet); phosphate buffer at three target pH values (the paper's methods)
readout-type: log K PDMS/w (neutral species)

Recorded log K PDMS/w (neutral species), per entry:
| compound | readout-type | value |
| --- | --- | --- |
| c1ccc2sc(N3CCOCC3)nc2c1 | log K PDMS/w (neutral species) | 2.029 log units; D and K as the pape |
| CSc1nc(NC2CC2)nc(NC(C)(C)C)n1 | log K PDMS/w (neutral species) | 2.78 log units; D and K as the pape |
| Clc1ccc(COC(Cn2ccnc2)c2ccc(Cl)cc2Cl)c(Cl)c1 (stereo not drawn) | log K PDMS/w (neutral species) | 4.599 log units; D and K as the pape |
| O=C(Nc1ccc(Cl)c(Cl)c1)c1cc(Cl)cc(Cl)c1O | log K PDMS/w (neutral species) | 3.883 log units; D and K as the pape |
| CC(C)(Oc1ccc(CCNC(=O)c2ccc(Cl)cc2)cc1)C(=O)O | log K PDMS/w (neutral species) | 1.311 log units; D and K as the pape |

Incoming: Param item = CCCCc1nc(Cl)c(CO)n1Cc1ccc(-c2ccccc2-c2nn[nH]n2)cc1 ; retrieve measured log K PDMS/w (neutral species).
Outgoing: 1.068 log units; D and K as the pape

Incoming: Follow-up item: c1ccc2[nH]nnc2c1
Outgoing: 0.1268 log units; D and K as the pape

Incoming: Follow-up item: NC12CC3CC(CC(C3)C1)C2
Outgoing: 2.916 log units; D and K as the pape

---

Assay: PDMS sheets cleaned by Soxhlet with ethyl acetate; batch shaking method with a mixture of all chemicals at several PDMS-mass to water-volume ratios and spiked levels; vials shaken on an orbital shaker at room temperature in the dark, sampled at two equilibration times; PDMS extracts and water quantified by LC-HRMS (Orbitrap); D from the slope of C_PDMS on C_w or their ratio; value is the mean over that pH's experiments (individual experiments in the SI's concentrations table), sd is the table's stdev
Settings: PDMS (polydimethylsiloxane silicone sheet); phosphate buffer at three target pH values (the paper's methods); pH 11.5
readout-type: log D PDMS/w (apparent distribution ratio at the stated pH)

Recorded log D PDMS/w (apparent distribution ratio at the stated pH), per entry:
| molecule | value |
| --- | --- |
| Oc1c(Br)cc(Cl)cc1Cc1cc(Cl)cc(Br)c1O | 0.555 log units; D and K as the pape |
| c1ccc2c(c1)[nH]c1cnccc12 | 2.227 log units; D and K as the pape |
| c1ccc2[nH]c(-c3cscn3)nc2c1 | 1.693 log units; D and K as the pape |
| CC(C)Nc1nc(N)nc(Cl)n1 | 0.411 log units; D and K as the pape |

Incoming: Param item = CCc1cccc(C)c1N(C(=O)C(=O)O)C(C)C(=O)O (centres unmarked) ; retrieve measured log D PDMS/w (apparent distribution ratio at the stated pH).
Outgoing: 3.008 log units; D and K as the pape
